Target: PPARgamma (h) (Homo sapiens, UniProt P37231)
Construct: CEREP (contract assay)
Sequence (P37231 whole entry): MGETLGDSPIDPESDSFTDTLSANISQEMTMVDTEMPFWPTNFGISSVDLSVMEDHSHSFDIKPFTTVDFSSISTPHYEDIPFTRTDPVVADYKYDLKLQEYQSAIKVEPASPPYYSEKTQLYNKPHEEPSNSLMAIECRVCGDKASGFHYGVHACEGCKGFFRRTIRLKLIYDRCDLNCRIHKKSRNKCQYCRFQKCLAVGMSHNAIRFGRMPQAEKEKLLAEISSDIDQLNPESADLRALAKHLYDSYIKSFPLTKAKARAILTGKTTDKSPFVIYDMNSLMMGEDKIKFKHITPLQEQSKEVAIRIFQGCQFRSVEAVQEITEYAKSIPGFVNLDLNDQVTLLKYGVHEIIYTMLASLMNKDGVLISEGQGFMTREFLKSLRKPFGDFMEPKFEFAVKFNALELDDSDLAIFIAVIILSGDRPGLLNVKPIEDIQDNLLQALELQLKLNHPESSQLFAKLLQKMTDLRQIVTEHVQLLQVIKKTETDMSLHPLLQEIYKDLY
Assay: CEREP panel
Format: binding
Settings: 10 µM
Could you please report measured % inhibition PPARgamma (h) for the items listed next?
Form entry: enter the amount, then its unit.

In: For PPARgamma (h) (Homo sapiens, UniProt P37231), provide % inhibition PPARgamma (h) of CCCC(C)(C)c1ccc2c(c1)OC(C)(C)[C@@H]1CC=C(C)C[C@@H]21 please.
Out: -5%

In: Query the reported % inhibition PPARgamma (h) for PPARgamma (h) (Homo sapiens, UniProt P37231); item: COc1ccc(C(=O)c2c(C)n(CCN3CCOCC3)c3cc(I)ccc23)cc1
Out: 99%

In: Given the entry Cc1c(C(=O)c2cccc3ccccc23)c2cccc3c2n1[C@H](CN1CCOCC1)CO3 , what % inhibition PPARgamma (h) was observed with PPARgamma (h) (Homo sapiens, UniProt P37231)?
Out: 39%

###

Please go through the items and note down their GIRK-cAMP ΔΔlogR.
Biological target: hCB2R (Homo sapiens, UniProt P34972)
Sequence (P34972 whole entry): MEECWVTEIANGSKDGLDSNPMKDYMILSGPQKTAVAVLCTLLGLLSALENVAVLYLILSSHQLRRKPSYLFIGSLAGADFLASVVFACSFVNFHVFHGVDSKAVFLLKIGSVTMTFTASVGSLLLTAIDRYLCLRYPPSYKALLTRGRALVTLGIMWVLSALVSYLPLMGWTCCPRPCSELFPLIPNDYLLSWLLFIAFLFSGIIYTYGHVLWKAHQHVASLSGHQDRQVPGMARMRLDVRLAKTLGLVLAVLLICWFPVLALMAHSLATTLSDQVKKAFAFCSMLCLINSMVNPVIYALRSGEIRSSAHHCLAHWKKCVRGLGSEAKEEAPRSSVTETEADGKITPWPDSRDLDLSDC
Design: expressed in transfected cells; host or cells: Flp-In-293 (Invitrogen #R750-07), pcDNA5/FRT
Conditions: hCB2R
Provide a numeric answer; units are not to be included.

In: Bench note: what GIRK-cAMP ΔΔlogR did CCCCC/C=C\C/C=C\C/C=C\C/C=C\CCCC(=O)NCCO [Anandamide, N-arachidonoylethanolamine] show?
Out: 1.42

In: Which measured GIRK-cAMP ΔΔlogR value corresponds to CCCCCCC(C)(C)c1cc(OC)c(C2=C[C@H]3CC[C@]2(CO)C3(C)C)c(OC)c1 ?
Out: 0.38

In: Dear colleague, I am looking for the recorded GIRK-cAMP ΔΔlogR of the following molecule: CCCCCCC(C)(C)c1cc(OC)c([C@@H]2C=C(CO)[C@@H]3C[C@H]2C3(C)C)c(OC)c1
Out: 0.64

In: Dear colleague, I am looking for the recorded GIRK-cAMP ΔΔlogR of the following molecule: CCCCC/C=C\C/C=C\C/C=C\C/C=C\CCCC(=O)OC(CO)CO
Out: 2.25

###

Settings: 1 μM
Property: CL hepatocytes mouse (µL/min/mio cells)
Record the value in µL/min/mio cells, omitting the unit from your answer.

In: # lookup: CL hepatocytes mouse of Cc1c(C(=O)c2cccc3ccccc23)c2cccc3c2n1[C@H](CN1CCOCC1)CO3
Out: 568

In: Which value of CL hepatocytes mouse has been reported for COc1ccc(C(=O)c2c(C)n(CCN3CCOCC3)c3cc(I)ccc23)cc1 in the records?
Out: 101

In: Recorded CL hepatocytes mouse for Cc1ccc2c(c1)Cc1c(C(=O)NN3CCCCC3)nn(-c3ccc(Cl)cc3Cl)c1-2 , please?
Out: 78

In: // lookup CL hepatocytes mouse for CCCn1c(C)c(C(=O)c2cccc3ccccc23)c2ccccc21
Out: 205

In: Query: CL hepatocytes mouse; subject: CCCC(C)(C)c1ccc2c(c1)OC(C)(C)[C@@H]1CC=C(C)C[C@@H]21
Out: 9.8

In: # input compound: CN1CCCC[C@H]1Cn1cc(C(=O)c2cc([N+](=O)[O-])ccc2I)c2ccccc21 [(S)-AM1241] ; wanted: its CL hepatocytes mouse
Out: 251

In: Requested read-out: CL hepatocytes mouse. Entry: CCCCCCC(C)(C)c1cc(OC)c(C2=C[C@H]3CC[C@]2(CO)C3(C)C)c(OC)c1
Out: 34
